System: HL-60 cells
ASSAY: MTT cytotoxicity assay, HL-60
Type: cell-based
SETUP_CONDITIONS: Homo sapiens, 72 h, mean ± SD of three independent experiments
MEASURED_QUANTITY: IC50 (µM)
The figure you give is taken to be in µM; do not add the unit.

For the molecule CO[C@@H]1C[C@@]2(C)[C@@H](CC[C@]3(C)[C@@H]2CC=C2[C@@H]4[C@@H](C)[C@H](C)CC[C@]4(C(=O)NCc4ccccc4)CC[C@]23C)[C@](C)(C(=O)N(C)C)[C@H]1OC(C)=O [Compound 14j] , give its reported IC50. 3.01

Quickly give me recorded IC50 for CO[C@@H]1C[C@@]2(C)[C@@H](CC[C@]3(C)[C@@H]2CC=C2[C@@H]4[C@@H](C)[C@H](C)CC[C@]4(C(=O)NCc4ccccc4)CC[C@]23C)[C@](C)(C(=O)N2CCN(C)CC2)[C@H]1OC(C)=O [Compound 14k] 3.36

Respond only with IC50 recorded for CO[C@@H]1C[C@@]2(C)[C@@H](CC[C@]3(C)[C@@H]2CC=C2[C@@H]4[C@@H](C)[C@H](C)CC[C@]4(C(=O)NCc4ccccc4)CC[C@]23C)[C@](C)(C(=O)N2CCN(C)CC2)[C@H]1O [Compound 13k] 10.7

Give IC50 for the following molecule: COC(=O)[C@@]1(C)[C@@H]2CC[C@]3(C)[C@H](CC=C4[C@@H]5[C@@H](C)[C@H](C)CC[C@]5(C(=O)NCc5ccccc5)CC[C@]43C)[C@@]2(C)C[C@@H](OC)[C@@H]1OC(C)=O 0.47

----------
Record form. Attribute: IC50. Fill in for each entry.
System: A2780 cells
ASSAY: MTT cytotoxicity assay, A2780
Assay type: cell-based
SETUP_CONDITIONS: Homo sapiens, 72 h, mean ± SD of three independent experiments
Number only, in µM; omit the unit.

# return recorded IC50 for entry CO[C@@H]1C[C@@]2(C)[C@@H](CC[C@]3(C)[C@@H]2CC=C2[C@@H]4[C@@H](C)[C@H](C)CC[C@]4(C(=O)NCc4ccccc4)CC[C@]23C)[C@](C)(C(=O)N2CCN(C)CC2)[C@H]1OC(C)=O [Compound 14k] 4.31

# return recorded IC50 for entry CO[C@@H]1C[C@@]2(C)[C@@H](CC[C@]3(C)[C@@H]2CC=C2[C@@H]4[C@@H](C)[C@H](C)CC[C@]4(C(=O)NCc4ccccc4)CC[C@]23C)[C@](C)(C(=O)N(C)C)[C@H]1OC(C)=O [Compound 14j] 2.24

// Input: CO[C@@H]1C[C@@]2(C)[C@@H](CC[C@]3(C)[C@@H]2CC=C2[C@@H]4[C@@H](C)[C@H](C)CC[C@]4(C(=O)NCc4ccccc4)CC[C@]23C)[C@](C)(C(=O)N2CCN(C)CC2)[C@H]1O [Compound 13k] . Output its IC50 only. 13

Annotate the molecule COC(=O)[C@@]1(C)[C@@H]2CC[C@]3(C)[C@H](CC=C4[C@@H]5[C@@H](C)[C@H](C)CC[C@]5(C(=O)NCc5ccccc5)CC[C@]43C)[C@@]2(C)C[C@@H](OC)[C@@H]1OC(C)=O [Compound 10] with its measured IC50. 1.28

----------
System: human ovarian (SKOV-3) cancer cell line
ASSAY: MTT cytotoxicity assay, SKOV-3
Format: cell-based
SETUP_CONDITIONS: Homo sapiens, SK-OV-3; MTT, 72 h, six concentrations, mean ± SD of three independent experiments
MEASURED_QUANTITY: IC50

Please report IC50 for the following compound: CO[C@@H]1C[C@@]2(C)[C@@H](CC[C@]3(C)[C@@H]2CC=C2[C@@H]4[C@@H](C)[C@H](C)CC[C@]4(C(=O)NCc4ccccc4)CC[C@]23C)[C@](C)(C(=O)O)[C@H]1O 31.9 µM

Return the recorded IC50 value; entry: COC(=O)C(C)NC(=O)C1(C)C(O)C(OC)CC2(C)C1CCC1(C)C2CC=C2C3C(C)C(C)CCC3(C(=O)NCc3ccccc3)CCC21C (stereo not drawn) [Compound 13f] 3.09 µM

Fill in reported IC50 for this entry: COC(=O)C(Cc1ccccc1)NC(=O)C1(C)C(O)C(OC)CC2(C)C1CCC1(C)C2CC=C2C3C(C)C(C)CCC3(C(=O)NCc3ccccc3)CCC21C (stereo not drawn) [Compound 13h] > 100 µM

Quick one: give measured IC50 for COc1cccc2c1C(=O)c1c(O)c3c(c(O)c1C2=O)C[C@@](O)(C(=O)CO)C[C@@H]3O[C@H]1C[C@H](N)[C@H](O)[C@H](C)O1 [Doxorubicin, reference compound] 0.08 µM

Entry COC(=O)[C@]1(C)C(=O)[C@H](OC)C[C@]2(C)[C@H]3CC=C4[C@@H]5[C@@H](C)[C@H](C)CC[C@]5(C(=O)NCc5ccccc5)CC[C@@]4(C)[C@]3(C)CC[C@@H]12 needs its IC50 filled in; supply it. > 100 µM

Look up and state reported IC50 for C[C@H]1[C@H](C)CC[C@]2(C(=O)O)CC[C@]3(C)C(=CC[C@@H]4[C@@]5(C)C[C@@H](O)[C@H](O)[C@@](C)(CO)[C@@H]5CC[C@]43C)[C@H]12 20.5 µM

Return reported IC50. Input compound: COC(=O)C(C)NC(=O)C1(C)C(OC(C)=O)C(OC)CC2(C)C1CCC1(C)C2CC=C2C3C(C)C(C)CCC3(C(=O)NCc3ccccc3)CCC21C (stereo not drawn) [Compound 14f] > 100 µM

Please report the measured IC50 for C#CCNC(=O)[C@@]1(C)[C@@H]2CC[C@]3(C)[C@H](CC=C4[C@@H]5[C@@H](C)[C@H](C)CC[C@]5(C(=O)NCc5ccccc5)CC[C@]43C)[C@@]2(C)C[C@@H](OC)[C@@H]1O [Compound 13e] 6.72 µM

Using known records, supply IC50 for CO[C@@H]1C[C@@]2(C)[C@@H](CC[C@]3(C)[C@@H]2CC=C2[C@@H]4[C@@H](C)[C@H](C)CC[C@]4(C(=O)NCc4ccccc4)CC[C@]23C)[C@](C)(C(=O)NC(C)C)[C@H]1OC(C)=O [Compound 14d] > 100 µM

In one line, give reported IC50 of the entry COC(=O)[C@@]1(C)[C@@H]2CC[C@]3(C)[C@H](CC=C4[C@@H]5[C@@H](C)[C@H](C)CC[C@]5(C(=O)NCc5ccccc5)CC[C@]43C)[C@@]2(C)C[C@@H](OC)[C@@H]1O . 6.81 µM

Report IC50 for C#CCNC(=O)[C@@]1(C)[C@@H]2CC[C@]3(C)[C@H](CC=C4[C@@H]5[C@@H](C)[C@H](C)CC[C@]5(C(=O)NCc5ccccc5)CC[C@]43C)[C@@]2(C)C[C@@H](OC)[C@@H]1OC(C)=O [Compound 14e] > 100 µM

Supply IC50 value. Item: CCNC(=O)[C@@]1(C)[C@@H]2CC[C@]3(C)[C@H](CC=C4[C@@H]5[C@@H](C)[C@H](C)CC[C@]5(C(=O)NCc5ccccc5)CC[C@]43C)[C@@]2(C)C[C@@H](OC)[C@@H]1OC(C)=O [Compound 14c] > 100 µM

Provide only the value of recorded IC50 for COC(=O)C(NC(=O)C1(C)C(OC(C)=O)C(OC)CC2(C)C1CCC1(C)C2CC=C2C3C(C)C(C)CCC3(C(=O)NCc3ccccc3)CCC21C)C(C)C (stereo not drawn) [Compound 14g] > 100 µM

Please list IC50 recorded for the compound CO[C@@H]1C[C@]2(C)[C@H]3CC=C4[C@@H]5[C@@H](C)[C@H](C)CC[C@]5(C(=O)NCc5ccccc5)CC[C@@]4(C)[C@]3(C)CC[C@H]2[C@](C)(C=O)[C@H]1OC(C)=O > 100 µM

Write down IC50 measured for item CO[C@@H]1C[C@@]2(C)[C@@H](CC[C@]3(C)[C@@H]2CC=C2[C@@H]4[C@@H](C)[C@H](C)CC[C@]4(C(=O)NCc4ccccc4)CC[C@]23C)[C@](C)(C(N)=O)[C@H]1OC(C)=O [Compound 14a] 7.12 µM

Consider the compound COC(=O)C(Cc1ccccc1)NC(=O)C1(C)C(OC(C)=O)C(OC)CC2(C)C1CCC1(C)C2CC=C2C3C(C)C(C)CCC3(C(=O)NCc3ccccc3)CCC21C (stereo not drawn) [Compound 14h] and give its recorded IC50. > 100 µM

Quick one: give measured IC50 for CCOC(=O)CCCNC(=O)[C@@]1(C)[C@@H]2CC[C@]3(C)[C@H](CC=C4[C@@H]5[C@@H](C)[C@H](C)CC[C@]5(C(=O)NCc5ccccc5)CC[C@]43C)[C@@]2(C)C[C@@H](OC)[C@@H]1OC(C)=O [Compound 14i] > 100 µM

Give recorded IC50. CO[C@@H]1C[C@@]2(C)[C@@H](CC[C@]3(C)[C@@H]2CC=C2[C@@H]4[C@@H](C)[C@H](C)CC[C@]4(C(=O)NCc4ccccc4)CC[C@]23C)[C@](C)(C=O)C1=O > 100 µM
